target_or_system: p38 MAPKα isoform (MAPK14) (Homo sapiens, UniProt Q16539)
Construct: purchased Life Technologies
Sequence (Q16539 whole entry, canonical isoform): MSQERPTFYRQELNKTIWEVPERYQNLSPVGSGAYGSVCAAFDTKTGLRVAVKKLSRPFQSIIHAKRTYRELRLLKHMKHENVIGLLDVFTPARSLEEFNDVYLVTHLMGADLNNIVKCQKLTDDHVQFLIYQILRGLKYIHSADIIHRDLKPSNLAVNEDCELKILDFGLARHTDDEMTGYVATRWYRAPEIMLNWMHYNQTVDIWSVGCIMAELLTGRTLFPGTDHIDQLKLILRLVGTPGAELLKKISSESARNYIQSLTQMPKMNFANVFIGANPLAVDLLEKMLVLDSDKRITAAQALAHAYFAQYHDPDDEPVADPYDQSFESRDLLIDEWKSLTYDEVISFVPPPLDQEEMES
procedure_text: p38 MAPKα enzyme inhibition (Z-LYTE FRET)
Format: biochemical
assay_setup: Table 2B, unit inferred; read-out: p38 MAPKα (Enzyme Profile)
measurement_name: IC50 (nM)

Example cases with answers are listed next.
entry_smiles	measurement_name	uom	recorded_result
Cc1ccc(-n2nc(C(C)(C)C)cc2NC(=O)Nc2ccc(OCc3ccnc(Nc4cnccn4)c3)c3ccccc23)cn1	IC50	nM	10
CC(=O)N1CCN(C(=O)c2cnc(Nc3cc(COc4ccc(NC(=O)Nc5cc(C(C)(C)C)nn5-c5ccc(C)cc5)c5ccccc45)ccn3)cn2)CC1	IC50	nM	12
CC(C)(C)c1cc(NC(=O)Nc2ccc(OCc3ccnc(Nc4cnc(C(=O)N5CCCC5)cn4)c3)c3ccccc23)n(-c2ccc(F)cc2)n1	IC50	nM	15
CCc1ccc(-n2nc(C(C)(C)C)cc2NC(=O)Nc2ccc(OCc3ccnc(Nc4cnc(CO)cn4)c3)c3ccccc23)cc1	IC50	nM	6.8

A: COCCNC(=O)c1cnc(Nc2cc(COc3ccc(NC(=O)Nc4cc(C(C)(C)C)nn4-c4cccc(C)c4)c4ccccc34)ccn2)cn1
B: CC(C)(C)c1cc(NC(=O)Nc2ccc(OCc3ccnc(Nc4cnccn4)c3)c3ccccc23)n(-c2cccc(CCO)c2)n1
Ask: For the two items A and B , which reports the higher IC50 value? Response format: the label of the selected entry.
Reply: A
